Cited source for all entries: paper PMC6303191

- TEST_SYSTEM: Ubiquitin Protein Ligase E3A (UBE3A) (Homo sapiens, assumed, UniProt Q05086)
- Sequence (Q05086 whole entry): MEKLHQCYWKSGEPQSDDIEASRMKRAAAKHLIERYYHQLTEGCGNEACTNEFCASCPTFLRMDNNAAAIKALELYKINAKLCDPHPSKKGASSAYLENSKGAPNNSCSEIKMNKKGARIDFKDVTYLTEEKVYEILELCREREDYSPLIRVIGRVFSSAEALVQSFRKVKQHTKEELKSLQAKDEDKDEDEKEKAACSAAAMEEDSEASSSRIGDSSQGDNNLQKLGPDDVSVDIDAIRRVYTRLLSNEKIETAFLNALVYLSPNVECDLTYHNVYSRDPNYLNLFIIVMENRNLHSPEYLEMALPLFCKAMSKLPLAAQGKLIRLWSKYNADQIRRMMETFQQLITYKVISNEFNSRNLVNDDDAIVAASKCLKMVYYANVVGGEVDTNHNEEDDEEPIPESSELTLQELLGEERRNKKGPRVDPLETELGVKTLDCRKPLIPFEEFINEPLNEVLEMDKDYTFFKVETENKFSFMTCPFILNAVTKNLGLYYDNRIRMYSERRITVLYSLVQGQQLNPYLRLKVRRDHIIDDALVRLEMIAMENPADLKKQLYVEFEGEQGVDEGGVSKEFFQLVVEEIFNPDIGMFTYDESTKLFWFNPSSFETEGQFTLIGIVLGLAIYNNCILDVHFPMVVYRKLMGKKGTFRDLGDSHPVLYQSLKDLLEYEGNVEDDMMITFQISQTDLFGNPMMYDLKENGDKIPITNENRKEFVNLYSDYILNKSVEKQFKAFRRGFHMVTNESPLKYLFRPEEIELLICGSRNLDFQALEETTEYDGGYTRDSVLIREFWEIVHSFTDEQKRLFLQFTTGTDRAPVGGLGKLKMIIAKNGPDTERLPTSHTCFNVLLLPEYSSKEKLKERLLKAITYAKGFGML
- EXPERIMENT: ELISA
- DETAILS: both partners purified
TEST_READOUT: binding result

VRC01 L34M (antibody, V domains shown) VH: QVQLVQSGGQMKKPGESMRISCRASGYEFIDCTMNWIRLAPGKRPEWMGWLKPRGGAVNYARPLQGRVTMTRDVYSDTAFLELRSLTVDDTAVYFCTRGKNCDYNWDFEHWGRGTPVIVSS VL: EIVLTQSPGTLSLSPGETAIISCRTSQYGSLAWYQQRPGQAPRLVIYSGSTRAAGIPDRFSGSRWGPDYNLTISNLESGDFGVYYCQQYEFFGQGTKVQVD :: binds
